# assay-target: Prothrombin (Homo sapiens)
The reader will find reported Ki values listed item by item below.
value-type: Ki (nM)

[
  {
    "compound": "COc1cc([C@@H](Nc2ccc(C(=N)N)cc2)C(=O)N[C@H](C(=O)O)c2ccccc2)c(S(=O)(=O)c2ccccc2)cc1OCc1ccccc1",
    "numeric-result": 540
  },
  {
    "compound": "COc1cc(C(Nc2ccc(C(=N)N)cc2)C(=O)NCc2ccccc2)ccc1OCc1ccccc1 (centres undefined)",
    "numeric-result": 43
  },
  {
    "compound": "COc1cc(CNc2ccc(C(=N)N)cc2)ccc1OCc1ccccc1",
    "numeric-result": 270
  },
  {
    "compound": "CCOc1cc(C(Nc2ccc(C(=N)N)cc2)C(=O)NCc2ccccc2)ccc1OCc1ccccc1 (centres undefined)",
    "numeric-result": 48
  }
]
